The measurements presented in this section are drawn from patent US20170119776A1.

# testSystem: MMP-9 of the mouse (Mus musculus, UniProt P41245)
# Sequence (P41245 108-730): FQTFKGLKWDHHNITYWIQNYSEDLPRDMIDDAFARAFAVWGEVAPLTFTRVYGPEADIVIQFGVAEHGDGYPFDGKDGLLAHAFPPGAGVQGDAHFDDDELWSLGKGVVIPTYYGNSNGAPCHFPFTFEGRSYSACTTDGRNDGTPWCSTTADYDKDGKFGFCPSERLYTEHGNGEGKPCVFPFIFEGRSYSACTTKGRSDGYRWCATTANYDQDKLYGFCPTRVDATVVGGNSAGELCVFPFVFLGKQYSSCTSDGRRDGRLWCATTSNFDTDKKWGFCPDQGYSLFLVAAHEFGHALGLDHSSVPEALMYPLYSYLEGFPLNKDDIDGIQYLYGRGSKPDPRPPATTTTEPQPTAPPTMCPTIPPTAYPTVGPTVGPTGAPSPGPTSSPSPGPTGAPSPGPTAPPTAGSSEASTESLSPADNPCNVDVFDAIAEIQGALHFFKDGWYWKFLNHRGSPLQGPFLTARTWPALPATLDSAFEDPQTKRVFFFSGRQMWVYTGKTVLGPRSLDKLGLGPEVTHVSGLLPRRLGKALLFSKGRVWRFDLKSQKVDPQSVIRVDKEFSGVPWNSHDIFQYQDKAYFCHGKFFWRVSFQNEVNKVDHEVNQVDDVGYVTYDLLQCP
measurementType: IC50 (µM)

A selection of reference data follows.
molecule	unitOfMeasurement	recordedMeasurement
CCCCCOc1ccc(C(=O)CC(CCn2nnc3ccccc3c2=O)C(=O)O)cc1 (single isomer, unassigned; enantiomer 1) [Comparative Example B-2]	µM	0.905
O=C(O)[C@H]1[C@H](Cn2nnc3ccccc3c2=O)CC[C@@H]1C(=O)c1ccc(-c2ccc(Cl)cc2)cc1 (racemic) [Comparative Example A-1]	µM	0.0049

P = O=C(O)[C@@H]1[C@@H](Cn2nnc3ccccc3c2=O)CC[C@H]1C(=O)c1ccc(-c2ccc(Cl)cc2)cc1 (single isomer, unassigned; enantiomer 2) [Comparative Example A-3]
Q = CCCCCOc1ccc(C(=O)CC(CCn2nnc3ccccc3c2=O)C(=O)O)cc1 (racemic) [Comparative Example B-1]
R = O=C(O)[C@H]1[C@H](Cn2nnc3ccccc3c2=O)CC[C@@H]1C(=O)c1ccc(OCc2ccccc2)cc1 [Example 2]
-- ask Ranking field: IC50; order: falling. To answer, write out the labels according to the requested order.
-- reply Q, R, P
(Q: 2.7 µM, R: 0.0275 µM, P: 0.0015 µM)

###

# testMethodNotes: Pharmacokinetic investigations in vivo, dog
# recordedConditions: plasma, iv; Dog (Beagle); read-out: CLPlasma CLblood (converted)
measurementType: clearance (mL/min/kg)
// note: answer is a bare numeric in mL/min/kg

-- ask Entry O=C(O)[C@H]1[C@H](Cn2nnc3ccccc3c2=O)CC[C@@H]1C(=O)c1ccc(OCc2ccccc2)cc1 : reported clearance = ?
-- reply 1.57

###

# testSystem: MMP-7 of the mouse (Mus musculus, UniProt Q10738)
# Sequence (Q10738 95-264): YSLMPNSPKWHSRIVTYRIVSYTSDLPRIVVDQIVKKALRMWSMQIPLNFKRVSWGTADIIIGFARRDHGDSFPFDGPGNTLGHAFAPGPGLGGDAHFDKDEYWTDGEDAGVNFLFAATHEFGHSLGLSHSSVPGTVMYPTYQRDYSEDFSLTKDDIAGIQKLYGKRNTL
pIC50: −log10 of the molar value.
measurementType: pIC50

A selection of reference data follows.
compound	pIC50
CCCCCOc1ccc(C(=O)CC(CCn2nnc3ccccc3c2=O)C(=O)O)cc1 (racemic) [Comparative Example B-1]	5.85
O=C(O)[C@@H]1[C@@H](Cn2nnc3ccccc3c2=O)CC[C@H]1C(=O)c1ccc(-c2ccc(Cl)cc2)cc1 (single isomer, unassigned; enantiomer 2) [Comparative Example A-3]	8.21

P = O=C(O)[C@H]1[C@H](Cn2nnc3ccccc3c2=O)CC[C@@H]1C(=O)c1ccc(-c2ccc(Cl)cc2)cc1 (racemic) [Comparative Example A-1]
Q = CCCCCOc1ccc(C(=O)CC(CCn2nnc3ccccc3c2=O)C(=O)O)cc1 (single isomer, unassigned; enantiomer 1) [Comparative Example B-2]
-- ask Which numeric pIC50 is bigger, that of P or that of Q ? Please respond with the label that marks your chosen entry.
-- reply P

###

# IC50 measurements, system: UniProt:P08253
# Sequence (P08253 110-660): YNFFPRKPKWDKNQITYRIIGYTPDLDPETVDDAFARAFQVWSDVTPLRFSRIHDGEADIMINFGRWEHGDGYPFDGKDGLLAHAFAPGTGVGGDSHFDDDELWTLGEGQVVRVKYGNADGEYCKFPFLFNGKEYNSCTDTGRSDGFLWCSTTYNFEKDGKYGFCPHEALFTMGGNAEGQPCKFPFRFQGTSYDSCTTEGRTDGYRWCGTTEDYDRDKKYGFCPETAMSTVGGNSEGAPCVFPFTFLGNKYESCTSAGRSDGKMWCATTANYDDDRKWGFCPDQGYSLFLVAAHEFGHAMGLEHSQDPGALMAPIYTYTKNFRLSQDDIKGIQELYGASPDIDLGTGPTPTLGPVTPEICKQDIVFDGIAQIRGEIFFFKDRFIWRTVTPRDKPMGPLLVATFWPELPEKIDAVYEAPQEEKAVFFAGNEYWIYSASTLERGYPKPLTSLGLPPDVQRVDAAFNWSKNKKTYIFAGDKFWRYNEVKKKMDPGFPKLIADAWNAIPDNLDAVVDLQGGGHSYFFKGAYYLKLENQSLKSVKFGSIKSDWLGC
measurementType: IC50 (µM)

compound	measurementType	unitOfMeasurement	recordedMeasurement
O=C(O)[C@H]1[C@H](Cn2nnc3ccccc3c2=O)CC[C@@H]1C(=O)c1ccc(OCc2ccccc2)cc1 (racemic) [Example 1]	IC50	µM	0.018

I = O=C(O)[C@H]1[C@H](Cn2nnc3ccccc3c2=O)CC[C@@H]1C(=O)c1ccc(OCc2ccccc2)cc1 [Example 2]
II = O=C(O)[C@@H]1[C@@H](Cn2nnc3ccccc3c2=O)CC[C@H]1C(=O)c1ccc(-c2ccc(Cl)cc2)cc1 (single isomer, unassigned; enantiomer 2)
III = CCCCCOc1ccc(C(=O)CC(CCn2nnc3ccccc3c2=O)C(=O)O)cc1 (single isomer, unassigned; enantiomer 1) [Comparative Example B-2]
IV = O=C(O)[C@H]1[C@H](Cn2nnc3ccccc3c2=O)CC[C@@H]1C(=O)c1ccc(-c2ccc(Cl)cc2)cc1 (racemic)
V = CCCCCOc1ccc(C(=O)CC(CCn2nnc3ccccc3c2=O)C(=O)O)cc1 (racemic) [Comparative Example B-1]
-- ask Ranking field: IC50; order: falling. To answer, write out the labels according to the requested order.
-- reply V, III, I, IV, II

###

Sequence of the target: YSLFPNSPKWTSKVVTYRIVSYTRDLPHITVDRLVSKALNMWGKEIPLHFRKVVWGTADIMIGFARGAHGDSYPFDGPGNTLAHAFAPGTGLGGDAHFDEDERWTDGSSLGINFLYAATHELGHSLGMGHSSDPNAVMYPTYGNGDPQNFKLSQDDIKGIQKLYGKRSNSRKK
measurementType: IC50 (nM)

A selection of reference data follows.
compound	IC50, nM
O=C(O)[C@H]1[C@H](Cn2nnc3ccccc3c2=O)CC[C@@H]1C(=O)c1ccc(OCc2ccccc2)cc1 [Example 2]	420
O=C(O)[C@H]1[C@H](Cn2nnc3ccccc3c2=O)CC[C@@H]1C(=O)c1ccc(-c2ccc(Cl)cc2)cc1 (racemic) [Comparative Example A-1]	310

1 = CCCCCOc1ccc(C(=O)CC(CCn2nnc3ccccc3c2=O)C(=O)O)cc1 (single isomer, unassigned; enantiomer 1) [Comparative Example B-2]
2 = O=C(O)[C@@H]1[C@@H](Cn2nnc3ccccc3c2=O)CC[C@H]1C(=O)c1ccc(-c2ccc(Cl)cc2)cc1 (single isomer, unassigned; enantiomer 2) [Comparative Example A-3]
-- ask Of 1 and 2 , which shows the smaller IC50 value? Please respond with the label that marks your chosen entry.
-- reply 2

###

pIC50: −log10 of the molar value.
# pIC50 measurements, system: MMP-10 (Homo sapiens)
# Sequence (P09238 99-476): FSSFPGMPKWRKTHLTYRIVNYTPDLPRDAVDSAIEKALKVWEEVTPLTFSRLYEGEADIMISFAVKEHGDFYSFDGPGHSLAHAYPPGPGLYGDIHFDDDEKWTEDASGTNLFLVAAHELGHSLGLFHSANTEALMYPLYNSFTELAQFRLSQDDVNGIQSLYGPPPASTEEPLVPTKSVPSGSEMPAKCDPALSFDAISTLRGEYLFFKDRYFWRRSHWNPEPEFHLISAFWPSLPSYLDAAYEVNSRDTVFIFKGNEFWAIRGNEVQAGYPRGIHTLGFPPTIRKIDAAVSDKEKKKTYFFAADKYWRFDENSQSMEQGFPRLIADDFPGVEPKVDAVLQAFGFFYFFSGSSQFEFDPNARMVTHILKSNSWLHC
measurementType: pIC50

I = O=C(O)[C@H]1[C@H](Cn2nnc3ccccc3c2=O)CC[C@@H]1C(=O)c1ccc(-c2ccc(Cl)cc2)cc1 (racemic)
II = CCCCCOc1ccc(C(=O)CC(CCn2nnc3ccccc3c2=O)C(=O)O)cc1 (single isomer, unassigned; enantiomer 1) [Comparative Example B-2]
III = CCCCCOc1ccc(C(=O)CC(CCn2nnc3ccccc3c2=O)C(=O)O)cc1 (racemic) [Comparative Example B-1]
-- ask Please order the records by their reported pIC50, lowest number first. To answer, write out the labels according to the requested order.
-- reply III, II, I

###

# testSystem: MMP-13 (Homo sapiens)
measurementType: IC50 (nM)

molecule	testSystem	IC50 / nM
CCCCCOc1ccc(C(=O)CC(CCn2nnc3ccccc3c2=O)C(=O)O)cc1 (single isomer, unassigned; enantiomer 1) [Comparative Example B-2]	MMP-13 (Homo sapiens)	360
O=C(O)[C@H]1[C@H](Cn2nnc3ccccc3c2=O)CC[C@@H]1C(=O)c1ccc(OCc2ccccc2)cc1	MMP-13 (Homo sapiens)	14.5
CCCCCOc1ccc(C(=O)CC(CCn2nnc3ccccc3c2=O)C(=O)O)cc1 (racemic) [Comparative Example B-1]	MMP-13 (Homo sapiens)	1800

P = O=C(O)[C@H]1[C@H](Cn2nnc3ccccc3c2=O)CC[C@@H]1C(=O)c1ccc(-c2ccc(Cl)cc2)cc1 (racemic)
Q = O=C(O)[C@@H]1[C@@H](Cn2nnc3ccccc3c2=O)CC[C@H]1C(=O)c1ccc(-c2ccc(Cl)cc2)cc1 (single isomer, unassigned; enantiomer 2)
-- ask Of P and Q , which shows the smaller IC50 value? Please respond with the label that marks your chosen entry.
-- reply Q
(Q: 0.82 nM, P: 1.8 nM)

###

# testMethodNotes: Pharmacokinetic investigations in vivo, rat
# recordedConditions: plasma, iv; Rat (Wistar); read-out: CLPlasma CLblood (converted)
# Method: The substance to be examined is administered to rats, mice or dogs intravenously as a solution (for example in corresponding plasma with a small addition of DMSO or in a PEG/ethanol/water mixture), and peroral administration is effected as a solution (for example in Solutol/ethanol/water or PEG/ethanol/water mixtures) or as a suspension (e.g. in a water/tylose mixture), in each case via a gavage. […] The test substance is quantified analytically in the plasma via LC-MS/MS. […]
measurementType: clearance (mL/min/kg)
// note: answer is a bare numeric in mL/min/kg

-- ask Entry O=C(O)[C@H]1[C@H](Cn2nnc3ccccc3c2=O)CC[C@@H]1C(=O)c1ccc(OCc2ccccc2)cc1 [Example 2] : reported clearance = ?
-- reply 0.183

###

# pIC50 measurements, system: MMP-3 of the mouse (Mus musculus, UniProt P28862)
# Sequence (P28862 100-477): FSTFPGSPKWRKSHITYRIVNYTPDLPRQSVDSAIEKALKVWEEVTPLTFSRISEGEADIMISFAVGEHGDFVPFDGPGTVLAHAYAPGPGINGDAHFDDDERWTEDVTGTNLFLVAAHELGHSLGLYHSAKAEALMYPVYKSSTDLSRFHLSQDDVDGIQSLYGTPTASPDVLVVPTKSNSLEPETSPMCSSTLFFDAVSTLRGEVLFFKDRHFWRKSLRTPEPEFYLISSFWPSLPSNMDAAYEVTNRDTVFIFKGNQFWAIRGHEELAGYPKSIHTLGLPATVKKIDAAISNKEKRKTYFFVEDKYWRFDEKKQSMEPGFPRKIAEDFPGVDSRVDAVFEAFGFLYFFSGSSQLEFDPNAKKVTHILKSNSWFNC
pIC50: −log10 of the molar value.
measurementType: pIC50

compound	measurementType	recordedMeasurement
O=C(O)[C@@H]1[C@@H](Cn2nnc3ccccc3c2=O)CC[C@H]1C(=O)c1ccc(-c2ccc(Cl)cc2)cc1 (single isomer, unassigned; enantiomer 2)	pIC50	7.95

P = CCCCCOc1ccc(C(=O)CC(CCn2nnc3ccccc3c2=O)C(=O)O)cc1 (single isomer, unassigned; enantiomer 1) [Comparative Example B-2]
Q = O=C(O)[C@H]1[C@H](Cn2nnc3ccccc3c2=O)CC[C@@H]1C(=O)c1ccc(OCc2ccccc2)cc1 [Example 2]
R = CCCCCOc1ccc(C(=O)CC(CCn2nnc3ccccc3c2=O)C(=O)O)cc1 (racemic) [Comparative Example B-1]
S = O=C(O)[C@H]1[C@H](Cn2nnc3ccccc3c2=O)CC[C@@H]1C(=O)c1ccc(-c2ccc(Cl)cc2)cc1 (racemic)
T = O=C(O)[C@H]1[C@H](Cn2nnc3ccccc3c2=O)CC[C@@H]1C(=O)c1ccc(OCc2ccccc2)cc1 (racemic) [Example 1]
-- ask Ranking field: pIC50; order: falling. To answer, write out the labels according to the requested order.
-- reply S, Q, T, P, R
(S: 7.77, Q: 7.06, T: 6.54, P: 5.17, R: 4.89)
